test system: p38-delta; details: concentration: 1 μM, replicates: in singlicate; n = 1;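 also: KINOMEscan kinase panel screen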
Measured metric: %Inh (%)
Give the quantity in %, number only.

Cc1c(Cn2c(C)nn3c(=O)cc(N4CCOC(C)C4)nc23)cccc1C(F)(F)F (stereo not drawn) [GSK2344444]	17
CCc1ccnc(/C=C/c2n[nH]c3cc(Sc4ccccc4C(=O)NC)ccc23)c1	7
CSc1ccc(-c2cc3ncnc(SCC(=O)O)c3s2)cc1	34
O=c1cc(N2CCOCC2)nc2n(Cc3cccc(Cl)c3Cl)c(C3CC3)nn12 [GSK2358994]	4
c1ccc(-c2n[nH]cc2-c2ccnc3ccccc23)nc1 [GW271431]	52
O=C(c1ccc(-c2cc(-c3c[nH]nc3-c3ccccn3)ccn2)cc1)N1CCOCC1 [GW812171]	0
COc1cc2c(cc1OCCN1CCN(C)CC1)ncc1c3ccc(C#N)cc3[nH]c21	7
O=C(NCCNc1ccnc(Nc2ccc(F)cc2)n1)c1cc2ccccc2s1 [GSK1379874]	40

Read the next record carefully.
Lab entry: p38-delta assay, molecule O=c1cc(N2CCOCC2)nc2n(Cc3cccc(C(F)(F)F)c3)ccn12 [GSK2297543] , %Inh = 21
